B1: Cyclin-F, residues 28 to 80; numbered along this chain, P41002 (parent)
chain: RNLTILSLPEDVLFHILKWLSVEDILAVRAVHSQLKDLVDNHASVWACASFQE

variants of: B1; assay: abundance fitness (aPCA) (normalised: wild type 0, dead -1); higher = more abundant; growth selection in yeast, the domain comes from the species named; conditions: Homo sapiens
reported metric: abundance fitness

Entry K36Q has what abundance fitness?
-0.609

Request: S7V
-0.647

# repeat for A49D
0.248

Moving on to H42N
-0.35

What about T4K ?
-0.611

// next record L3G
-0.435

Continue with W46F
-0.364

Query L6A next
-0.898

Cool, now L13T
-0.001

Do the same for I16H please
-1.02
